Tested on: Escherichia coli TOP10
assay method text: shrunken log2 fold change of peptide-encoding DNA abundance (4.5 h post-induction vs induction); higher = less antimicrobial activity (less host growth inhibition)
details: time post-induction: 4.5 h; library: site-saturation at positions 5, 18, 19, 20
reported endpoint: shrunken log2 fold change
Give only the figure.

Output shrunken log2 fold change of RRIRRRPPRLPRPRPRPQVMPRP
0.0874

Write down shrunken log2 fold change measured for item RRIRPRPPRLPRPRPRPELKPRP
0.0877

Look up and state reported shrunken log2 fold change for RRIRNRPPRLPRPRPRPRSLPRP
0.0993

Give shrunken log2 fold change for RRIRPRPPRLPRPRPRPPWNPRP
0.77

Answer with the recorded shrunken log2 fold change of RRIRIRPPRLPRPRPRPSEPPRP only.
-0.192

Return reported shrunken log2 fold change. Input sequence: RRIRERPPRLPRPRPRPMDIPRP
-0.235

Determine its reported shrunken log2 fold change: RRIRCRPPRLPRPRPRPWFVPRP
-0.629

Respond only with shrunken log2 fold change recorded for RRIRFRPPRLPRPRPRPGLVPRP
-0.0941

---

Test system: Escherichia coli TOP10;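 note: peptides expressed intracellularly from a pBAD plasmid library in pooled LB shake-flask culture, induced with 0.3% L-arabinose, DNA abundance read by NGS, three biological replicates, DESeq2 with apeglm shrinkage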
assay method text: shrunken log2 fold change of peptide-encoding DNA abundance (4.5 h post-induction vs induction); higher = less antimicrobial activity (less host growth inhibition)
details: time post-induction: 4.5 h; library: site-saturation at positions 5, 18, 19, 20
The threshold is inclusive: shrunken log2 fold change of exactly -0.1 counts as True; values below receive False.

Exam item: decide whether the reported shrunken log2 fold change for RRIRERPPRLPRPRPRPWTFPRP is at least -0.1.
False

Is shrunken log2 fold change for RRIRVRPPRLPRPRPRPWCSPRP at or above -0.1?
False

Is shrunken log2 fold change for RRIRIRPPRLPRPRPRPHMMPRP at or above -0.1?
False

Reported shrunken log2 fold change reaches at least -0.1 for RRIRERPPRLPRPRPRPLPVPRP ?
True

Confirm if shrunken log2 fold change reported for the sequence RRIRARPPRLPRPRPRPPVWPRP is -0.1 or above.
True

Quick check, shrunken log2 fold change >= -0.1? RRIRARPPRLPRPRPRPFFPPRP
True

Decide: is the reported value of shrunken log2 fold change for RRIRNRPPRLPRPRPRPAGVPRP equal to or greater than -0.1?
True

Check the entry RRIRRRPPRLPRPRPRPAITPRP : does shrunken log2 fold change equal or exceed -0.1?
True

Say whether RRIRKRPPRLPRPRPRPAKIPRP shows shrunken log2 fold change of -0.1 or more.
False

Reported shrunken log2 fold change reaches at least -0.1 for RRIRIRPPRLPRPRPRPNNIPRP ?
False

Check this sequence for shrunken log2 fold change at or above -0.1: RRIRKRPPRLPRPRPRPEWRPRP
True

Given the entry RRIRTRPPRLPRPRPRPRIVPRP , answer whether its shrunken log2 fold change meets or surpasses -0.1.
True

Hi, just wondering whether RRIRRRPPRLPRPRPRPTVYPRP shows shrunken log2 fold change of -0.1 or higher.
False

Form field: shrunken log2 fold change at least -0.1? Entry: RRIRHRPPRLPRPRPRPHERPRP
True

Would you say RRIRVRPPRLPRPRPRPHRRPRP shows shrunken log2 fold change at minimum -0.1?
False

Quick check: does RRIRNRPPRLPRPRPRPAKHPRP have shrunken log2 fold change greater than or equal to -0.1?
True

Item RRIRHRPPRLPRPRPRPQHFPRP with shrunken log2 fold change of -0.1 or above?
True

Given RRIRDRPPRLPRPRPRPQAMPRP , state whether its shrunken log2 fold change is at least -0.1.
True

Form field: shrunken log2 fold change at least -0.1? Entry: RRIRVRPPRLPRPRPRPRVGPRP
True

Given RRIRTRPPRLPRPRPRPWWRPRP , state whether its shrunken log2 fold change is at least -0.1.
True

Please indicate if the recorded shrunken log2 fold change for RRIRPRPPRLPRPRPRPNPSPRP meets or exceeds -0.1.
False

Decide: shrunken log2 fold change of RRIRIRPPRLPRPRPRPRQMPRP >= -0.1?
True

API: above_or_equal(metric=shrunken log2 fold change, cutoff=-0.1) for item RRIRTRPPRLPRPRPRPYSEPRP
False

Reported shrunken log2 fold change at or above -0.1? RRIRMRPPRLPRPRPRPFHAPRP
True

Does shrunken log2 fold change meet or surpass -0.1 for RRIRTRPPRLPRPRPRPIYQPRP ?
False

API: above_or_equal(metric=shrunken log2 fold change, cutoff=-0.1) for item RRIRPRPPRLPRPRPRPNERPRP
True

Quick check, shrunken log2 fold change >= -0.1? RRIRYRPPRLPRPRPRPKDRPRP
False

Please indicate if the recorded shrunken log2 fold change for RRIRHRPPRLPRPRPRPPNMPRP meets or exceeds -0.1.
True

Given the entry RRIRCRPPRLPRPRPRPGDTPRP , answer whether its shrunken log2 fold change meets or surpasses -0.1.
True

Could you verify whether the entry RRIRKRPPRLPRPRPRPVEMPRP shows shrunken log2 fold change of no less than -0.1?
True

Decide: is the reported value of shrunken log2 fold change for RRIRIRPPRLPRPRPRPFPNPRP equal to or greater than -0.1?
False

Check if shrunken log2 fold change >= -0.1 (inclusive). Item: RRIRFRPPRLPRPRPRPGANPRP
True

I'd appreciate it if you could say whether RRIRDRPPRLPRPRPRPNLLPRP has shrunken log2 fold change at least equal to -0.1.
True

Kindly determine if shrunken log2 fold change recorded for RRIRKRPPRLPRPRPRPNYTPRP is above or exactly -0.1.
False

Determine whether this sequence has shrunken log2 fold change no lower than -0.1: RRIRPRPPRLPRPRPRPGKFPRP
False

State whether the measured shrunken log2 fold change reaches -0.1, counting equality as reaching it, for RRIRHRPPRLPRPRPRPRKFPRP
True

Could you verify whether the entry RRIRNRPPRLPRPRPRPLRDPRP shows shrunken log2 fold change of no less than -0.1?
True

Hello, I need to know if RRIRMRPPRLPRPRPRPQYGPRP has measured shrunken log2 fold change not below -0.1. Thanks!
True

Exam item: decide whether the reported shrunken log2 fold change for RRIRKRPPRLPRPRPRPGITPRP is at least -0.1.
True

Reported shrunken log2 fold change at or above -0.1? RRIRTRPPRLPRPRPRPQMDPRP
False

Does the reported shrunken log2 fold change for RRIRFRPPRLPRPRPRPTMCPRP fall at or above the -0.1 mark?
False

Is shrunken log2 fold change at least -0.1? Consider RRIRERPPRLPRPRPRPQEAPRP
True

Quick check, shrunken log2 fold change >= -0.1? RRIRSRPPRLPRPRPRPWEHPRP
True

I'd appreciate it if you could say whether RRIRDRPPRLPRPRPRPSGVPRP has shrunken log2 fold change at least equal to -0.1.
True

Does the reported shrunken log2 fold change for RRIRCRPPRLPRPRPRPFLWPRP fall at or above the -0.1 mark?
False

In plain terms: is recorded shrunken log2 fold change at least -0.1 for RRIRIRPPRLPRPRPRPIPPPRP ?
True

Reported shrunken log2 fold change at or above -0.1? RRIRWRPPRLPRPRPRPRCTPRP
True

Threshold query (shrunken log2 fold change >= -0.1) on RRIRFRPPRLPRPRPRPMHSPRP
False

Quick check, shrunken log2 fold change >= -0.1? RRIRARPPRLPRPRPRPRQQPRP
True

Quick check, shrunken log2 fold change >= -0.1? RRIRDRPPRLPRPRPRPAEAPRP
True

Is shrunken log2 fold change for RRIRPRPPRLPRPRPRPMTAPRP at or above -0.1?
True

Entry RRIRSRPPRLPRPRPRPIMVPRP : is its shrunken log2 fold change no less than -0.1?
False

Hi, just wondering whether RRIRIRPPRLPRPRPRPEIKPRP shows shrunken log2 fold change of -0.1 or higher.
False

Does the sequence RRIRIRPPRLPRPRPRPCFCPRP have recorded shrunken log2 fold change that is -0.1 or more?
False

Can RRIRGRPPRLPRPRPRPDGFPRP be said to have shrunken log2 fold change at or above -0.1?
True

Item RRIRSRPPRLPRPRPRPRLSPRP with shrunken log2 fold change of -0.1 or above?
True

Tell me whether shrunken log2 fold change is at least -0.1 here: RRIRKRPPRLPRPRPRPNVFPRP
True

Hi team, for RRIRTRPPRLPRPRPRPDEGPRP , is the recorded shrunken log2 fold change at or above -0.1?
True

# check: shrunken log2 fold change of RRIRVRPPRLPRPRPRPAHRPRP is greater than or equal to -0.1
True

Determine whether measured shrunken log2 fold change meets or exceeds -0.1 for RRIRYRPPRLPRPRPRPMFQPRP
False

Quick check: does RRIRNRPPRLPRPRPRPQIYPRP have shrunken log2 fold change greater than or equal to -0.1?
True

Given RRIRARPPRLPRPRPRPQQSPRP , state whether its shrunken log2 fold change is at least -0.1.
True

Item RRIRRRPPRLPRPRPRPDENPRP with shrunken log2 fold change of -0.1 or above?
True

The values you see were collected from the supplement of paper PMC9112550.
